# System: Leishmania donovani
# assay.procedure: Antileishmanial activity against Leishmania donovani amastigote infected in mouse J774A.1 cells after 72 hrs by luciferase reporter gene assay
# Assay type: functional, organism-based
# condition.parameters: J774.A1, 72 h
pIC50: −log10 of the molar value.
property: pIC50

| compound | pIC50 |
| --- | --- |
| COc1cc(C2CC(/C=C/C3=C(C)CCCC3(C)C)=NN2c2ccccc2)cc(OC)c1OC (stereo unspecified) | < 4.70 |
| CC1=C(/C=C/C2=NN(c3ccccc3)C(c3ccccc3Cl)C2)C(C)(C)CCC1 (stereo unspecified) | < 4.70 |
| CC1=CCCC(C)(C)C1/C=C/C1=NN(c2ccccc2)C(c2ccccc2[N+](=O)[O-])C1 (stereo unspecified) | < 4.70 |

Complete the entry with pIC50 for CC1=CCCC(C)(C)C1/C=C/C1=NN(c2ccccc2)C(c2ccc([N+](=O)[O-])cc2)C1 (stereo unspecified)
< 4.40

Complete the entry with pIC50 for COc1cc(C2CC(/C=C/C3C(C)=CCCC3(C)C)=NN2c2ccccc2)cc(OC)c1OC (stereo unspecified)
< 4.70

Complete the entry with pIC50 for COc1ccc(-c2cc(/C=C/C3C(C)=CCCC3(C)C)nn2-c2ccccc2)cc1OC (stereo unspecified)
< 4.70

Complete the entry with pIC50 for CC1=CCCC(C)(C)C1/C=C/c1cc(-c2ccc([N+](=O)[O-])cc2)n(-c2ccccc2)n1 (stereo unspecified)
< 4.40

Complete the entry with pIC50 for CC1=C(/C=C/C2=NN(c3ccccc3)C(c3ccc([N+](=O)[O-])cc3)C2)C(C)(C)CCC1 (stereo unspecified)
< 4.40

Complete the entry with pIC50 for CC1=CCCC(C)(C)C1/C=C/c1cc(-c2ccc(F)cc2)n(-c2ccccc2)n1 (stereo unspecified)
< 4.40

Complete the entry with pIC50 for CC1=CCCC(C)(C)C1/C=C/C1=NN(c2ccccc2)C(c2ccc(F)cc2)C1 (stereo unspecified)
< 4.40

Complete the entry with pIC50 for CC1=C(/C=C/C2=NN(c3ccccc3)C(c3ccc(Cl)cc3)C2)C(C)(C)CCC1 (stereo unspecified)
< 4.70

---

# Tested on: Leishmania donovani
# assay.procedure: Antileishmanial activity against Leishmania donovani amastigote infected in mouse J774A.1 cells after 72 hrs by luciferase reporter gene assay
# Assay type: functional, organism-based
# condition.parameters: J774.A1, 72 h
pIC50: −log10 of the molar value.
property: pIC50

| compound | study.system | pIC50 |
| --- | --- | --- |
| CC1=C(/C=C/C2=NN(c3ccccc3)C(c3cccc(Cl)c3)C2)C(C)(C)CCC1 (centres undefined) | Leishmania donovani | < 4.40 |

Complete the entry with pIC50 for COc1ccc(C2CC(/C=C/C3=C(C)CCCC3(C)C)=NN2c2ccccc2)cc1OC (centres undefined)
5.13

Complete the entry with pIC50 for COc1ccc(C2CC(/C=C/C3C(C)=CCCC3(C)C)=NN2c2ccccc2)cc1OC (centres undefined)
< 4.70

---

# Test system: Leishmania donovani
# assay.procedure: Antileishmanial activity against Leishmania donovani amastigote infected in mouse J774A.1 cells after 72 hrs by luciferase reporter gene assay
# Assay type: functional, organism-based
# condition.parameters: J774.A1, 72 h
Measured IC50 by item

Use these answered entries as a reference point.
| molecule | result |
| --- | --- |
| COc1cc(-c2cc(/C=C/C3C(C)=CCCC3(C)C)nn2-c2ccccc2)cc(OC)c1OC (stereo unspecified) | > 40 µM |
| CC1=CCCC(C)(C)C1/C=C/c1cc(-c2ccccc2[N+](=O)[O-])n(-c2ccccc2)n1 (stereo unspecified) | > 40 µM |
| CC1=C(/C=C/C2=NN(c3ccccc3)C(c3ccc(F)cc3)C2)C(C)(C)CCC1 (stereo unspecified) | > 40 µM |
| CC1=C(/C=C/C2=NN(c3ccccc3)C(c3ccc(OCc4ccccc4)cc3)C2)C(C)(C)CCC1 (stereo unspecified) | > 40 µM |
| CC1=C(/C=C/C2=NN(c3ccccc3)C(c3ccccc3[N+](=O)[O-])C2)C(C)(C)CCC1 (stereo unspecified) | > 20 µM |

Complete the entry with IC50 for CC1=C(/C=C/C2=NN(c3ccccc3)C(c3cccc([N+](=O)[O-])c3)C2)C(C)(C)CCC1 (stereo unspecified)
16.9 µM

The measurements presented in this section are drawn from ChEMBL document CHEMBL2331481.
